Biological target: T1, biotinylated Interleukin-6 receptor (IL-6R) (human, UniProt P08887 20-344, limits assumed, biotinylated (method of BMC biotechnology, 2008, 8, 41 and Protein Science, 1999, 8, 921-929); site not stated)
T1 construct: also called human IL-6 receptor; hIL-6R
T1 sequence (looked up): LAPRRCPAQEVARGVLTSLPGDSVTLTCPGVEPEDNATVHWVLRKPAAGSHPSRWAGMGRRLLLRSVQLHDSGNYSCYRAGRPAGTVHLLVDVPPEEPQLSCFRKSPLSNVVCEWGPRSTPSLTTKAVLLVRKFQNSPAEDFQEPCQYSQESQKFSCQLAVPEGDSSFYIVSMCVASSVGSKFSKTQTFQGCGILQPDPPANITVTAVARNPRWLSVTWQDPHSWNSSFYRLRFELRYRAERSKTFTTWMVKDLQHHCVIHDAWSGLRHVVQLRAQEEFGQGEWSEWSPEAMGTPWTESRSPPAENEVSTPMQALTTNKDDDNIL
Assay: ECL immunoassay (MSD): biotinylated target on streptavidin plate, translated FlPu(urea)-labelled cyclic peptide (Translation Solution T), anti-fluorescein and SULFO-TAG anti-mouse antibody; no-template control 177
Method: 0.5 μl of a 200 mM EDTA solution (pH 8.0, Nacalai, 14362-24) and 0.5 μl of a 100 mM TCEP solution (pH 6.6) were added to 5 μL of the translation mixture, and the mixture was incubated at 37° C. for 120 minutes to cause cyclization reaction. […]
Positions of bridges follow the written chain, without caps; N, C: chain ends. Non-standard residues stand in square brackets, D forms with d. NMeAla(4-thiazolyl) = CN[C@@H](Cc1cscn1)C(=O)O; NMePhe(3-Cl) = CN[C@@H](Cc1cccc(Cl)c1)C(=O)O; Met(O2) = CS(=O)(=O)CC[C@H](N)C(=O)O; NMeF = CN[C@@H](Cc1ccccc1)C(=O)O; FlPu(urea) = not defined here; βAla = NCCC(=O)O; Sar = CNCC(=O)O
Listed binders paired with reported ECL signal
The response must contain the number and no unit.

Would you please look over these solved cases?
APII[NMeF][Met(O2)]P[NMePhe(3-Cl)][dY]VDSTSGSGSGS-{FlPu(urea)} (lactam N-11; reading uncertain, Translated in ECL Translation Solution T, cyclized and desulfurized; not isolated; also called translation product of template DNA DME-2) [SEQ ID NO: PE-2 (IL-6R binder) peptide]    307000
AII[NMeAla(4-thiazolyl)]WP[NMePhe(3-Cl)][Met(O2)][dY][βAla]DP[NMePhe(3-Cl)]SGSGSGS-{FlPu(urea)} (lactam N-11; reading uncertain, Translated in ECL Translation Solution T, cyclized and desulfurized; not isolated; also called translation product of template DNA DME-14) [SEQ ID NO: PE-14 (IL-6R binder) peptide]    45600
APVI[NMeF][Met(O2)]P[NMePhe(3-Cl)]V[Met(O2)]DP[Sar]SGSGSGS-{FlPu(urea)} (lactam N-11; reading uncertain, Translated in ECL Translation Solution T, cyclized and desulfurized; not isolated; also called translation product of template DNA DME-13) [SEQ ID NO: PE-13 (IL-6R binder) peptide]    537000

Turning to the following binder.
If you can, please state the reported ECL signal value of APIIW[NMePhe(3-Cl)][Met(O2)]P[NMePhe(3-Cl)][dY]DV[dY]SGSGSGS-{FlPu(urea)} (lactam N-11; reading uncertain, Translated in ECL Translation Solution T, cyclized and desulfurized; not isolated; also called translation product of template DNA DME-3) [SEQ ID NO: PE-3 (IL-6R binder) peptide] .
70000
